- EXPERIMENTAL DETAILS: Evaluation of light fastness-2 (OD value of printed portion after 400 hours xenon fadeometer)
- Assay type: physicochemical
- MEASUREMENT PARAMETERS: ink prepared as in Example 1 from the salt named in the row; OD value of printed portion after 400 hours xenon fadeometer
EXPERIMENTAL ENDPOINT: (A)-2 light fastness-2

These solved cases illustrate the format of a correct answer.
N#Cc1c(C(F)(F)F)c(N=Nc2cc(C(=O)O)ccc2C(=O)O)c(O)n(CCNC(=O)c2cc(C(=O)O)c(C(=O)NCCn3c(O)c(N=Nc4cc(C(=O)O)ccc4C(=O)O)c(C(F)(F)F)c(C#N)c3=O)cc2C(=O)O)c1=O [Compound 291]	⊚⊚
Cc1c(N=Nc2cc(C(=O)O)ccc2C(=O)O)c(O)n(CCNC(=O)c2cc(C(=O)NCCn3c(O)c(N=Nc4cc(C(=O)O)ccc4C(=O)O)c(C)c(C#N)c3=O)c(C(=O)O)cc2C(=O)O)c(=O)c1C#N [Compound 296]	⊚
Cc1c(N=Nc2cccc(C(=O)O)c2C(=O)O)c(O)n(CCCC(=O)O)c(=O)c1C#N [compound 48]	◯
Cc1c(N=Nc2cc(C(=O)O)ccc2C(=O)O)c(O)n(CCCCCCNc2nc(Cl)nc(NCCCCCCn3c(O)c(N=Nc4cc(C(=O)O)ccc4C(=O)O)c(C)c(C#N)c3=O)n2)c(=O)c1C#N [Compound No. 246]	Δ
Cc1c(N=Nc2cccc(C(=O)O)c2C(=O)O)c(O)[nH]c(=O)c1C#N [Compound No. 1]	⊚
Cc1c(N=Nc2cc(C(=O)O)ccc2C(=O)O)c(O)n(CCCCCCNC(=O)c2cc(C(=O)NCCCCCCn3c(O)c(N=Nc4cc(C(=O)O)ccc4C(=O)O)c(C)c(C#N)c3=O)c(C(=O)O)cc2C(=O)O)c(=O)c1C#N [Compound 299]	◯

Lab note: Cc1c(N=Nc2cc(C(=O)O)ccc2C(=O)O)c(O)n(Cc2ccc(C(=O)O)c(C(=O)O)c2)c(=O)c1C#N [compound 92] gave (A)-2 light fastness-2 of ⊚⊚

Lab note: Cc1c(N=Nc2cc(C(=O)O)ccc2C(=O)O)c(O)n(CCCCCCNc2nc(Cl)nc(NCCn3c(O)c(N=Nc4cc(C(=O)O)ccc4C(=O)O)c(C)c(C#N)c3=O)n2)c(=O)c1C#N [Compound 249] gave (A)-2 light fastness-2 of ◯

Lab note: Cc1c(N=Nc2cc(S(=O)(=O)O)ccc2C(=O)O)c(O)n(CCC(=O)O)c(=O)c1C#N [compound 218] gave (A)-2 light fastness-2 of ⊚

Lab note: CCc1c(N=Nc2cc(C(=O)O)ccc2C(=O)O)c(O)n(CCNc2nc(Cl)nc(NCCn3c(O)c(N=Nc4cc(C(=O)O)ccc4C(=O)O)c(C(F)(F)F)c(C#N)c3=O)n2)c(=O)c1C#N [Compound 250] gave (A)-2 light fastness-2 of ◯

Lab note: CNC(=O)c1cc(C(=O)O)c(N=Nc2c(O)[nH]c(=O)c(C#N)c2C)cc1C(=O)O [compound 14] gave (A)-2 light fastness-2 of ⊚
